System: UACC-62
METHOD DESCRIPTION: NCI tumour cell line growth inhibition, 48 h
The source made the active and inactive calls. Cut-off read from the data, not from the text of the source: active = GI50 up to about 1.1 µM and inactive = higher.
PROPERTY LABEL: GI50

Recorded GI50 (compound `CC1=C(C)C(=O)O[C@@H]([C@](C)(O)[C@]2(O)CC[C@@]3(O)[C@@H]4C[C@H](O)[C@]5(O)[C@@H](O)C=CC(=O)[C@]5(C)[C@H]4CC[C@]23C)C1` ): 47.6 µM (inactive)

Recorded GI50 (compound `N#Cc1cc(-c2nc3c(F)cccc3s2)ccc1N` ): > 100 µM (inactive)

Recorded GI50 (compound `O=C(C[n+]1ccccc1)N/N=C(\Cc1nc2ccc([N+](=O)[O-])cc2nc1O)C(=O)Nc1cc(Cl)c(Cl)cc1Cl` ): > 100 µM (inactive)

Recorded GI50 (compound `CC(=O)Nc1ncc2c(n1)-c1ccccc1OC2` ): > 100 µM (inactive)

Recorded GI50 (compound CCSC1SC(c2ccccc2)(c2ccccc2)c2ccccc21 (centres undefined) ): 53.6 µM (inactive)

Recorded GI50 (compound CN(C)CCOc1ccc2[nH]c(C(=O)N3CC(CCl)c4ccc(N)cc43)cc2c1 (centres undefined) ): 0.0753 µM (active)

Recorded GI50 (compound `O=C(O)CS` ): > 100 µM (inactive)

Recorded GI50 (compound CSC1SCC2C(=O)N(C)C3(CC3C)C(=O)OCC(NC(=O)c3nc4ccccc4cc3O)C(=O)NC(C)C(=O)N(C)C1C(=O)N(C)C1(CC1C)C(=O)OCC(NC(=O)c1nc3ccccc3cc1O)C(=O)NC(C)C(=O)N2C (centres undefined) ): < 0.0001 µM (active)

Recorded GI50 (compound `NS(=O)(=O)c1ccc(NC(=O)N/N=C/c2ccccc2[N+](=O)[O-])cc1` ): 75.3 µM (inactive)

* * *

I'd be grateful if you could share measured GI50 for these entries.
Test system: MOLT-4
METHOD DESCRIPTION: NCI tumour cell line growth inhibition, 48 h
Active and inactive are the calls of the source. Cut-off read from the data, not from the text of the source: active = GI50 up to about 1.1 µM and inactive = higher.

Recorded GI50 (compound CCCCCCCCC(C)CCCCCCCCC(=O)OCC(COP(=O)([O-])OCC[N+](C)(C)C)OC(=O)CCCCCCCCC(C)CCCCCCCC (stereo not drawn) ): > 100 µM (inactive)

Recorded GI50 (compound CN(C)CCOc1ccc2[nH]c(C(=O)N3CC(CCl)c4ccc(N)cc43)cc2c1 (stereo not drawn) ): < 0.01 µM (active)

Recorded GI50 (compound `Oc1nc(S)nc(SCc2c(Cl)c(Cl)c(Cl)c(Cl)c2Cl)n1` ): 0.809 µM (active)

Recorded GI50 (compound `Cc1ccc(-c2c(N)nc(NC#N)nc2CCC(=O)Nc2ccccc2[N+](=O)[O-])cc1` ): > 100 µM (inactive)

Recorded GI50 (compound `COC(=O)/C(=C\c1cn(C(C)=O)c2ccccc12)P(=O)(OC)OC` ): 34.8 µM (inactive)

Recorded GI50 (compound COC(=O)C(CNC(=O)/C=C/c1ccc(OC)c(OC)c1)NC(=O)/C=C/c1ccc(OC)c(OC)c1 (stereo not drawn) ): 77.1 µM (inactive)

Recorded GI50 (compound `CCOP(=O)(OCC)/C(C#N)=C/c1cnc(-c2ccccc2)[nH]1` ): > 100 µM (inactive)

Recorded GI50 (compound `O=C(O)CN(c1ccccc1)S(=O)(=O)c1ccc(Cl)cc1` ): > 100 µM (inactive)

Recorded GI50 (compound COc1cc2c3c(c1OC)C1(C=CC(=O)C=C1)CC3NCC2 (stereo not drawn) ): > 100 µM (inactive)

Recorded GI50 (compound O=C(N[C@H](CO)[C@H](O)c1ccc([N+](=O)[O-])cc1)C(Cl)Cl [CHLORAMPHENICOL] ): > 100 µM (inactive)

Recorded GI50 (compound COc1cc(C2S/C(=C/c3ccccc3)C(=O)N2c2cc(Cl)ccc2Cl)cc(OC)c1OC (stereo not drawn) ): 34.8 µM (inactive)

Recorded GI50 (compound O=C(CC(C(=O)c1ccc(F)cc1)c1ccsc1)c1cccs1 (stereo not drawn) ): 29.6 µM (inactive)

Recorded GI50 (compound CC1=NN(c2cccc(S(=O)(=O)O)c2)C2(C1)SCC(=O)N2c1nc2ccccc2s1 (stereo not drawn) ): > 100 µM (inactive)

Recorded GI50 (compound `N#C[BH2-][n+]1ccc(C(=O)NNCc2ccccc2)cc1` ): > 100 µM (inactive)

Recorded GI50 (compound `CN(C)CCC(=O)N1C/C(=C\c2ccc(Cl)c(Cl)c2)C(=O)/C(=C/c2ccc(Cl)c(Cl)c2)C1` ): 0.19 µM (active)

Recorded GI50 (compound `Cc1cc(C)nc(NS(=O)(=O)c2ccc(Nc3c4ccccc4nc4ccc(C(=O)Nc5ccc(S(=O)(=O)N=C(N)N)cc5)cc34)cc2)n1` ): 32.3 µM (inactive)

Recorded GI50 (compound C1=C(c2ccccc2)C(N2CCOCC2)Oc2ccccc21 (stereo not drawn) ): 81.7 µM (inactive)

Recorded GI50 (compound `Cc1c(/C=N/NC(=S)Nc2ccccc2Cl)c(=O)n(-c2ccccc2)n1C` ): 20.5 µM (inactive)

Recorded GI50 (compound `O=[N+]([O-])c1ccc([I+]c2ccccc2)cc1` ): 2.25 µM (inactive)

Recorded GI50 (compound `COc1cccc2c1Cc1cc(-c3ccccc3)[n+](C)n1-2` ): 2.92 µM (inactive)

Recorded GI50 (compound `O=C(O)c1ccc(/N=N/c2cc(S(=O)(=O)O)c3cccnc3c2O)cc1` ): > 100 µM (inactive)

Recorded GI50 (compound CCOC(=O)C(C(=O)OCC)=C1NC2(c3ccccc3Nc3ccccc32)C(C#N)S1 (stereo not drawn) ): 3.53 µM (inactive)

Recorded GI50 (compound `C(=N\CC/N=C/c1cccc2ccccc12)/c1cccc2ccccc12` ): > 100 µM (inactive)

Recorded GI50 (compound COc1cccc(C23CCN(C)C(CC(O)C2)C3)c1OC (stereo not drawn) ): > 100 µM (inactive)

Recorded GI50 (compound `c1ccc(-c2cc(-c3ccncc3)cc(-c3ccncc3)n2)cc1` ): > 100 µM (inactive)

Recorded GI50 (compound N#CCC1COc2ccccc2O1 (stereo not drawn) ): > 10 µM (inactive)

Recorded GI50 (compound `CCOC(=O)C1(C#N)CC1` ): > 100 µM (inactive)

Recorded GI50 (compound CC(=O)OCC1=C2C(OC(=O)C(C)C)CC3(COC(C)=O)OC3/C=C\C3(C)OC3C2OC1=O (stereo not drawn) ): > 100 µM (inactive)

Recorded GI50 (compound CC(C)(C)OCC1NC(=O)[C@@H]2Cc3c([nH]c4ccccc34)C(c3ccccc3)N2C1=O (stereo partly drawn) ): 16.2 µM (inactive)

Recorded GI50 (compound `Cc1c(CN)c(C)c(CN)c(C)c1CN` ): > 100 µM (inactive)

Recorded GI50 (compound NC1=NN(c2ccccc2)C(=O)C1C(=O)C(=O)Nc1ccccc1 (stereo not drawn) ): > 100 µM (inactive)

Recorded GI50 (compound CC(=O)c1cccc(NC(=O)C(=O)C(C2OC(=O)c3ccccc32)[N+](=O)[O-])c1 (stereo not drawn) ): > 100 µM (inactive)

Recorded GI50 (compound ClC(Cl)(Cl)C1CCOC1n1nnc2ccccc21 (stereo not drawn) ): 21.9 µM (inactive)

Data provenance is ChEMBL document CHEMBL1201862.
